Listed here are compounds together with their documented GI50.
system: M14; assay: NCI tumour cell line growth inhibition, 48 h
Activity calls are given as the source filed them. No stated cut-off is given here; in the data, active = GI50 up to about 1.1 µM and inactive = higher.

These recorded examples may help you get a feel for the data.
compound="CC(=O)OCC1OC(NC(=S)CCSc2nc3ccccc3c(=O)n2-c2ccccc2)C(OC(C)=O)C(OC(C)=O)C1OC(C)=O (centres undefined)" quantity=GI50 result="46.1 µM (inactive)"
compound=CCC1(CC)C(=O)NC(=S)N=C1N quantity=GI50 result="> 100 µM (inactive)"
compound=O=C1Sc2ccccc2NC1=C(C(=O)c1ccccc1)C(=O)c1ccccc1 quantity=GI50 result="15.2 µM (inactive)"

## Input GI50 of "CCN(CC)CC/N=C\c1c(O)c(O)c(C(C)C)c2cc(C)c(-c3c(C)cc4c(C(C)C)c(O)c(O)c(/C=N/CCN(CC)CC)c4c3O)c(O)c12" on M14?
## Output 1.83 µM (inactive)

* * *

Listed here are compounds together with their documented GI50.
system: UO-31; test: NCI tumour cell line growth inhibition, 48 h
Active and inactive are the calls of the source. Rule as the data show it: active = GI50 up to about 1.1 µM and inactive = higher.

## Input Name the reported GI50 value associated with the compound CC(=O)OCC1OC(NC(=S)CCSc2nc3ccccc3c(=O)n2-c2ccccc2)C(OC(C)=O)C(OC(C)=O)C1OC(C)=O (stereo not drawn)
## Output 42 µM (inactive)

## Input Name the reported GI50 value associated with the compound "COC(=O)[C@@H]1CN(C(=O)c2ccccc2)C(=O)N1"
## Output 69.7 µM (inactive)

## Input Name the reported GI50 value associated with the compound "CCCC[C@@H](C)/C=C1\CN2CCC[C@H]2[C@@](C)(OCc2ccccc2)[C@@H]1O"
## Output > 13.2 µM (inactive)

* * *

Listed here are compounds together with their documented GI50.
tested on: HOP-62; assay: NCI tumour cell line growth inhibition, 48 h
Activity calls are given as the source filed them. Rule as the data show it: active = GI50 up to about 1.1 µM and inactive = higher.

These recorded examples may help you get a feel for the data.
compound=O=C(O)/C(O)=C\C(=O)c1ccc(Br)cc1 quantity=GI50 result="> 100 µM (inactive)"
compound=COc1cccc(CC(=O)N2CCN(CCCc3ccccc3)CC2)c1 quantity=GI50 result="> 100 µM (inactive)"

## Input Name the reported GI50 value associated with the compound "Cc1ccccc1NC(=O)C(=O)CC(=O)c1ccc([N+](=O)[O-])cc1"
## Output > 100 µM (inactive)

* * *

tested on: SNB-75; experiment: NCI tumour cell line growth inhibition, 48 h
Where a name gives a salt, the structure may show the parent alone. Activity calls are given as the source filed them. Rule as the data show it: active = GI50 up to about 1.1 µM and inactive = higher.
Outcome field: choose from yes (active), no (inactive)

Some solved entries appear below for comparison.
molecule="CC[C@]12CN3CCc4c([nH]c5ccccc45)[C@@](C(=O)OC)(c4cc5c(cc4OC)N(C)[C@H]4[C@@](O)(C(=O)OC)[C@H](OC(C)=O)[C@]6(CC)C=CCN7CC[C@]54[C@@H]76)CC(C3)[C@H]1O2 (some centres undefined) [VINLEUROSINE SULFATE]" tgt=SNB-75 classification=yes
molecule=Cc1cc(=O)n(-c2ccccc2)c(=O)o1 tgt=SNB-75 classification=no
molecule=COc1cc(C=O)ccc1O tgt=SNB-75 classification=no

## Input Fill in: this test's call for N#CC(c1ccc(Cl)cc1)c1cccc(Cl)n1 (centres undefined) is ___
## Output no

* * *

Listed here are molecules together with their documented GI50.
system: EKVX; assay: NCI tumour cell line growth inhibition, 48 h
Active and inactive are the calls of the source. Cut-off read from the data, not from the text of the source: active = GI50 up to about 1.1 µM and inactive = higher.

These recorded examples may help you get a feel for the data.
molecule=Cc1cccc2c1[nH]c1[nH]c(=O)[nH]c(=O)c12 result="83.8 µM (inactive)"
molecule=CCc1ncc(CO)n1Cc1cccc2ccccc12 result="> 100 µM (inactive)"
molecule="C/C1=C/C(C)CC(C)OC(=O)C(C)NC(=O)C(Cc2ccc(O)c(I)c2)N(C)C(=O)CNC(=O)C(C)C1 (centres undefined)" result="0.0443 µM (active)"
molecule="O=C(O)C(Cc1ccc(O)c([N+](=O)[O-])c1)N1C(=O)c2ccccc2C1=O (centres undefined)" result="> 100 µM (inactive)"
molecule=CN1CC[C@@]2(c3cccc(O)c3)CC(=O)/C(=C/c3ccccc3)[C@H]1C2.[O-][Cl+3]([O-])([O-])O result="14.9 µM (inactive)"
molecule=Cc1ccccc1NC(=O)C(=O)CC(=O)c1ccc([N+](=O)[O-])cc1 result="> 100 µM (inactive)"
molecule="COc1ccc([C@@H]2OC(=O)C3C2C(=O)O[C@H]3c2ccc(OC)cc2)cc1 (some centres undefined)" result="> 100 µM (inactive)"
molecule=Nc1nc(Cl)cc(/N=N\c2ccccc2)n1 result="37.2 µM (inactive)"
molecule="COC(=O)C(Cc1nc2ccc(Cl)cc2nc1O)/C(=N/O)C(=O)Nc1cccc(Cl)c1C (centres undefined)" result="10.1 µM (inactive)"
molecule=CCCC[C@@H](C)/C=C1\CN2CCC[C@H]2[C@@](C)(OCc2ccccc2)[C@@H]1O result="> 31.1 µM (inactive)"

## Input GI50 of "CCOc1ccc(/C(Cl)=C(\C=O)c2ccc(OC)c(OC)c2)cc1OCC" on EKVX?
## Output 65.2 µM (inactive)

## Input GI50 of "CCC1(CC)C(=O)NC(=S)N=C1N" on EKVX?
## Output > 100 µM (inactive)

## Input GI50 of CC(=O)OC1[C@H](n2ccnc2)C[C@H]2[C@@H]3CC=C4CC(N5CCCC5)CC[C@]4(C)[C@H]3CC[C@]12C (some centres undefined) on EKVX?
## Output 70.1 µM (inactive)

## Input GI50 of "Cc1cn(S(=O)(=O)c2ccccc2)c2c(OCc3ccccc3)cc(NC(=O)c3cc4cc([N+](=O)[O-])ccc4s3)cc12" on EKVX?
## Output > 100 µM (inactive)

## Input GI50 of "COc1cc([C@@H]2c3cc4c(cc3[C@@H](Nc3ccccc3C(=O)c3ccccc3)[C@H]3COC(=O)[C@H]23)OCO4)cc(OC)c1OC" on EKVX?
## Output > 54.6 µM (inactive)

## Input GI50 of "O=C1NC(=O)c2ccc([N+](=O)[O-])c3cccc1c23" on EKVX?
## Output 28.3 µM (inactive)

## Input GI50 of C/C=C1/CN2CCC3(O)c4ccccc4N4C=C(C(=O)OC)C1CC2C43O (centres undefined) on EKVX?
## Output > 100 µM (inactive)

## Input GI50 of CC(C)OC(=O)C1Cc2c([nH]c3ccccc23)C(c2ccccc2)N1 (centres undefined) on EKVX?
## Output 89.3 µM (inactive)

## Input GI50 of CCO/C=N/C1=C(C#N)C(c2ccc(OC)c(OC)c2)c2c(-c3ccccc3)nn(-c3ccccc3)c2O1 (centres undefined) on EKVX?
## Output 16.1 µM (inactive)
